Some compounds, each annotated with its measured inhibition at 20 µM.
target: Rho-A (Homo sapiens (Human), UniProt P61586); assay: Rho inhibition assay (labeled GTP); assay type: binding; conditions: read-out: Rho-A % Inh.
Sequence (P61586 whole entry): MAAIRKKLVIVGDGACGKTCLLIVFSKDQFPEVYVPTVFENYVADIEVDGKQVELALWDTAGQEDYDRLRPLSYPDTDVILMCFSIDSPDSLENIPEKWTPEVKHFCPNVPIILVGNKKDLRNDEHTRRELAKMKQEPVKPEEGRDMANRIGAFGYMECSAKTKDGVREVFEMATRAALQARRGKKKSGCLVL

Example cases with answers are listed next.
CC(C(=O)Nc1nc(-c2ccccn2)nc2sccc12)c1ccc(C#N)cc1 (stereo not drawn) [drawing 3687]
76 to 100%
COc1ccc(-c2csc3c(O)nc(-c4nccn4C)nc23)cn1 [drawing 3931]
51 to 75%
Cn1ccnc1-c1nc(O)c2scc(-c3ccccc3Cl)c2n1 [drawing 3933]
51 to 75%
Cc1ccc(-c2cc3nc(-c4ccccn4)nc(O)c3s2)cc1 [drawing 3873]
0%
O=C(NCCc1cncnc1)c1csc2nc(-c3ccccn3)nc(N3CCOCC3)c12 [drawing 3673]
51 to 75%
O=C(c1csc2c(O)nc(-c3ccccn3)nc12)N1CCNC(Cc2cccc(F)c2)C1 (stereo not drawn) [drawing 3704]
51 to 75%
COc1cnc(C2CCCN2)nc1O (stereo not drawn) [drawing 3788]
1 to 25%
Cc1sc2c(O)nc(-c3nccn3C)nc2c1-c1ccc(OC(C)C)c(F)c1 [drawing 3928]
25 to 50%

Then there is this compound:
Answer with reported inhibition at 20 µM of O=C(COCc1cccnc1)Nc1nc(-c2ccccn2)nc2sccc12 [drawing 3701] 76 to 100%

---

Some compounds, each annotated with its measured inhibition at 20 µM.
biological target: KRas G12D mutant protein (Homo sapiens (Human), UniProt P01116, G12D); assay: Ras GTP binding domain inhibition assay (labeled GTP); conditions: 20 μM compound; read-out: % Inhibition at 20 μM KRas G12D
Sequence (P01116-2 other isoform, or with tags, fused parts or gaps G12D): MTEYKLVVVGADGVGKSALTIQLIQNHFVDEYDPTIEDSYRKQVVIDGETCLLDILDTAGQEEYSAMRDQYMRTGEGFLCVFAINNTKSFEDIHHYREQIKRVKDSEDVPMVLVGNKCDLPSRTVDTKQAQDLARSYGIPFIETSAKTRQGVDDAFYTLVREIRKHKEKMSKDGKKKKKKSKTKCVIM

COc1cc(-c2csc3c(O)nc(-c4ccccn4)nc23)cnc1C(F)(F)F [drawing 2884]
51 to 75%
COc1cccc(CN2CCN(C(=O)c3csc4c(O)nc(-c5ccccn5)nc34)CC2)c1 [drawing 2763]
76 to 100%
O=C(c1csc2c(O)nc(-c3ccccn3)nc12)N1CCOC(c2ccccc2Cl)C1 (stereo not drawn) [drawing 2769]
25 to 50%
Oc1nc(-c2ccccn2)nc2c(-c3ccc4c(c3)OCO4)csc12 [drawing 2879]
51 to 75%
O=C(c1ccccn1)N1CCCc2c(O)nc(-c3ccccn3)nc21 [drawing 2655]
25 to 50%

Answer with reported inhibition at 20 µM of Oc1nc(-c2ccccn2)nc2c(-c3cccc4c3OCO4)csc12 [drawing 2849] 25 to 50%

Answer with reported inhibition at 20 µM of CNC(=O)c1ccc(-c2csc3c(O)nc(-c4ccccn4)nc23)cc1C [drawing 2885] 25 to 50%

Answer with reported inhibition at 20 µM of COc1ccnc(-c2nc(O)c3c(Cl)csc3n2)c1 [drawing 2800] 51 to 75%

Answer with reported inhibition at 20 µM of O=C(COCc1ccncc1)Nc1nc(-c2ccccn2)nc2sccc12 [drawing 2828] 51 to 75%

---

Some molecules, each annotated with its measured inhibition at 10 µM.
system: MAPK phosphorylation in PANC-1 pancreatic cancer cell line; test: MAPK cell-based phosphorylation assay (cell-direct ELISA, EGF stimulation); details: Homo sapiens, * = tested at 10 μM

COCCNc1nc(-c2cn(C)cn2)nc2sc(C)c(-c3ccccc3)c12 [drawing 1345]
25 to 50%
Cc1sc2c(O)nc(-c3ccccn3)nc2c1-c1ccccc1 [drawing 1241]
76 to 100%
CC(C)OCCNc1nc(-c2nccn2C)nc2sc(-c3ccccc3)c(-c3ccccc3)c12 [drawing 1327]
76 to 100%
COCCNc1nc(-c2nccn2C)nc2sc(-c3ccncc3)c(-c3ccccc3)c12 [drawing 1342]
0%
CC(C)COc1ccc(-c2csc3c(O)nc(-c4cn(C)cn4)nc23)cn1 [drawing 1365]
1 to 25%

Answer with reported inhibition at 10 µM of COc1ccc(-c2csc3c(O)nc(-c4ccccn4)nc23)c(C)c1 [drawing 1220] 76 to 100%

Answer with reported inhibition at 10 µM of Cn1ccnc1-c1nc(O)c2sc(-c3ccccc3)c(-c3ccccc3)c2n1 [drawing 1348] 51 to 75%

Answer with reported inhibition at 10 µM of Nc1cccc(-c2csc3c(O)nc(-c4ccccn4)nc23)n1 [drawing 1274] 51 to 75%

Numbers sourced from patent US10940139B2.
